target_entity: human A1 receptor (Homo sapiens)
Sequence (P30542 1-326): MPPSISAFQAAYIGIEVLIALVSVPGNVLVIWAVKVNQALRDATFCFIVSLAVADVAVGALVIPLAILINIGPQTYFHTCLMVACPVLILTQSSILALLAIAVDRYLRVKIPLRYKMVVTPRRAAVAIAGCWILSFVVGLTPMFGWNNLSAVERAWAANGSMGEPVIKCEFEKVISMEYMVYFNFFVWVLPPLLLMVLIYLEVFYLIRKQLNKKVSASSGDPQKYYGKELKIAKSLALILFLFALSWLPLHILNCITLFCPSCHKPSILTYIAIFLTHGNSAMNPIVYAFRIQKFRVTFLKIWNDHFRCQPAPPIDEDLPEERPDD
experimental_protocol: Adenosine antagonistic activity, radioligand binding with [3H]DPCPX
test_conditions: [3H]DPCPX 4.5 nM
metric: Ki (nM)

# example entries with known answers
CC(C)n1cc(-c2nc(C(=O)NCC#N)c(N)nc2-c2ccccc2)ccc1=O 5.25
Cn1cc(-c2nc(C#N)c(N)nc2-c2ccccc2)ccc1=O 22.5

(I) CC(C)n1cc(-c2nc(Br)c(N)nc2-c2ccccc2)ccc1=O
(II) CC(C)n1cc(-c2nc(Oc3ccccc3)c(N)nc2-c2ccccc2)ccc1=O
(III) CC(C)n1cc(-c2nc(CO)c(N)nc2-c2ccccc2)ccc1=O
(IV) CC(C)n1cc(-c2nc(C(=O)NCCO)c(N)nc2-c2ccccc2)ccc1=O
Reorder the items by Ki, least to greatest. Reply: labels, ordered per the request.
I, II, IV, III

(a) CC(C)n1cc(-c2nc(-c3ccco3)c(N)nc2-c2ccccc2)ccc1=O
(b) CC(C)n1cc(-c2nc(C#N)c(N)nc2-c2ccc(F)c(F)c2)ccc1=O
(c) CC(C)n1cc(-c2nc(Br)c(N)nc2-c2ccccc2)cc(Br)c1=O
(d) CC(C)n1cc(-c2ncc(N)nc2-c2cccs2)ccc1=O
(e) CC(C)n1cc(-c2ncc(N)nc2-c2cc(F)cc(F)c2)ccc1=O
Reorder the items by Ki, least to greatest. Reply: labels, ordered per the request.
c, a, d, e, b
(c: 0.93 nM, a: 1.78 nM, d: 4.89 nM, e: 10.7 nM, b: 24 nM)

---

metric: melting point (°C)

compound	melting point, °C
CC(C)n1cc(-c2nc(C#N)c(N)nc2-c2ccc(F)cc2)ccc1=O (hydrate or solvate)	207
CC(C)n1cc(-c2nc(C(N)=O)c(N)nc2-c2ccccc2)ccc1=O (hydrate or solvate) [Example 16]	245

---

metric: melting point (°C)

molecule	metric	value_units	data_value
CC(C)n1cc(-c2nc(C(N)=O)c(N)nc2-c2cc(F)cc(F)c2)ccc1=O (hydrate or solvate)	melting point	°C	248.8
COc1ccccc1-c1nc(N)c(C#N)nc1-c1ccc(=O)n(C(C)C)c1 (hydrate or solvate)	melting point	°C	222.6
COc1ccc(-c2nc(N)c(C(N)=O)nc2-c2ccc(=O)n(C(C)C)c2)cc1 (hydrate or solvate)	melting point	°C	243.9

---

# melting point per record follows
Counter-ions that a name gives are not always drawn.

# example entries with known answers
molecule	data_value
CCn1cc(-c2nc(C#N)c(N)nc2-c2ccccc2)ccc1=O [Example 12]	193 to 199 °C
COc1ccc(-c2nc(C#N)c(N)nc2-c2ccccc2)cn1 [Example 1]	201 to 205 °C
CCOC(=O)c1nc(-c2ccc(=O)[nH]c2)c(-c2ccccc2)nc1N [Example 8]	230 to 238 °C
NC(=O)c1nc(-c2ccc(=O)[nH]c2)c(-c2ccccc2)nc1N (hydrate or solvate) [Example 2]	215 to 220 °C
CCCn1cc(-c2nc(C#N)c(N)nc2-c2ccccc2)ccc1=O [Example 13]	180 to 183 °C

Given CC(C)n1cc(-c2nc(C(N)=O)c(N)nc2-c2ccccc2)ccc1=O [Example 6] , state its recorded melting point.
240 to 245 °C

Given CCCn1cc(-c2nc(C(N)=O)c(N)nc2-c2ccccc2)ccc1=O [Example 5] , state its recorded melting point.
> 250 °C

Given COc1ccc(-c2nc(C(N)=O)c(N)nc2-c2ccccc2)cn1 (hydrate or solvate) [Example 15] , state its recorded melting point.
208 to 212 °C

Given CCn1cc(-c2nc(C(N)=O)c(N)nc2-c2ccccc2)ccc1=O [Example 4] , state its recorded melting point.
> 250 °C

Given Cn1cc(-c2nc(C#N)c(N)nc2-c2ccccc2)ccc1=O (as salt: Na) [Example 11] , state its recorded melting point.
> 250 °C

Given Cn1cc(-c2nc(C(N)=O)c(N)nc2-c2ccccc2)ccc1=O [Example 3] , state its recorded melting point.
> 250 °C
